Each entry below carries its reported IC50.
# target or test system: Kv1.3 potassium channel (Homo sapiens)
# Construct: expressed in transfected cells
# Sequence (P22001 whole entry): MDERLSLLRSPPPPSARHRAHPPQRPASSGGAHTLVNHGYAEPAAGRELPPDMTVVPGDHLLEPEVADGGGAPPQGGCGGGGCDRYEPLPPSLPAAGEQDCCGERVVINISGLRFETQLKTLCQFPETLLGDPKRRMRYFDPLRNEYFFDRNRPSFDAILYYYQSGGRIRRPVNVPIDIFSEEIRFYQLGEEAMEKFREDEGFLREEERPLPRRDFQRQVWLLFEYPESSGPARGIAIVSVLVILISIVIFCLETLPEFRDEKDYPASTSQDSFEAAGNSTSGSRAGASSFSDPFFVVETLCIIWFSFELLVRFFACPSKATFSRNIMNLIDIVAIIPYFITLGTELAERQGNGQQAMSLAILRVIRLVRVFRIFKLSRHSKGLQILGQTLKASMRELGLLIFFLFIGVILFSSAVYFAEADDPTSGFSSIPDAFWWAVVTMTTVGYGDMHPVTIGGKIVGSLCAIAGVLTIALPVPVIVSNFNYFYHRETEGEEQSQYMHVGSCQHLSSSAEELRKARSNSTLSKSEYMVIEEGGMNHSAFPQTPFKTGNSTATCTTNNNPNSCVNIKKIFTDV
# protocol notes: Kv1.3 potassium channel blocker activity, automated whole-cell patch clamp (Patchliner)
# Type: cell-based
# particulars: CHO-K1 cells stably expressing Kv1.3; 100 ms pulses from -90 mV to +40 mV, 0.1 Hz

query smiles: O=C1N[C@H](CO)CN2CC[C@H](c3c(O)ccc(Cl)c3Cl)C[C@H]12
IC50: < 10000 nM

Inquiry: // map `O=C([C@@H](O)CO)N1CC(=O)N2C[C@@H](c3c(O)ccc(Cl)c3Cl)C[C@H]2C1` to recorded IC50 (system: Kv1.3 potassium channel (Homo sapiens))
Reply text: < 1000 nM

Inquiry: And what about the molecule `CC(C)(O)C(=O)N1CC(=O)N2CC[C@@H](c3c(O)ccc(Cl)c3Cl)C[C@H]2C1` ?
Reply text: < 1000 nM
